test system: Micrococcus luteus; test: Antibacterial activity against Micrococcus luteus IFC12708; assay type: functional
metricName: MIC (µg/mL)

| molecule | reportedRelation | resultNumber |
| --- | --- | --- |
| CC1=CCC[C@@H](C)[C@]1(C)CC/C(C)=C/CCC(CCCc1ccoc1)COS(=O)(=O)O.CN(C)C(=N)N (some centres undefined) | > | 100 |
| CN(C)C(=N)N.C[C@@H]1CCC2=C(CCCC2(C)C)[C@@]1(C)CC[C@H](CCCc1ccoc1)COS(=O)(=O)O | = | 50 |
| CC1=CC[C@H]2C(C)(C)CCC[C@]2(C)[C@H]1C/C=C(\C)CCC/C(C)=C/Cc1cc(O)ccc1O | = | 25 |
| CC1(C)S[C@@H]2[C@H](NC(=O)[C@H](N)c3ccccc3)C(=O)N2[C@H]1C(=O)O | = | 1.56 |
